- System: EKVX NSCLC
- Run Description: NCI tumour cell line growth inhibition, 48 h
Quantity Measured: TGI

Look up and report measured TGI for this entry: O=C(O)c1c(CC(Cc2ccc3c(c2)CCCC3)C(=O)O)ccc2c1CCCC2 (stereo not drawn)
> 100 µM

Look up and report measured TGI for this entry: COC(=O)C1OC(O[C@H]2CC[C@]3(C)[C@H]4CC=C5[C@@H]6CC(C)(C)CC[C@]6(C(=O)OC)[C@H](O)C[C@@]5(C)[C@]4(C)CC[C@H]3C2(C)C)C(O)C(O)C1O (stereo partly drawn)
21.4 µM

Look up and report measured TGI for this entry: `OCCSCCCSCCO`
> 100 µM

Look up and report measured TGI for this entry: `CC[N+](CC)=c1ccc2nc3c(cc(NCc4ccccc4)c4ccccc43)oc-2c1`
0.944 µM

Look up and report measured TGI for this entry: `CCN1/C(=C/c2ccc3ccccc3[n+]2CC)C=Cc2ccccc21`
16.7 µM

Look up and report measured TGI for this entry: `COC(=O)c1ccccc1NC(=O)C(=O)CC(=O)c1ccccc1NC1=CC(=O)C(=O)c2ccccc21`
> 100 µM

Look up and report measured TGI for this entry: CO/N=C1\CCC2(O)C3Cc4ccc(O)c5c4C2(CCN3CC2CC2)[C@H]1O5 (stereo partly drawn)
> 100 µM

Look up and report measured TGI for this entry: `COc1ccc(C(=O)N2CCN(c3ccc4c(c3)OCC(=O)N4)CC2)cc1`
> 100 µM

Look up and report measured TGI for this entry: `O=C1c2ccccc2S(=O)(=O)N1CSC(=S)N1CCCC1`
> 100 µM

Look up and report measured TGI for this entry: `CC(=O)Oc1ccn2nc(C)c(Br)c2c1Br`
> 58.5 µM

Look up and report measured TGI for this entry: `CCC(=O)OCc1ccc2oc(=O)c(C(=O)Oc3cncc(Cl)c3)cc2c1`
> 100 µM

Look up and report measured TGI for this entry: `COc1cc2cc(Oc3ccc(NC(=O)Nc4ccccc4)cc3)c(C)nc2cc1OCCN1CCCCC1`
10.9 µM

Look up and report measured TGI for this entry: `CC(C)(C)OC(=O)NCCCCCCCCn1c2c(c3ccccc3c1=O)C(=O)c1ccccc1-2`
> 50 µM

Look up and report measured TGI for this entry: `O=S(=O)(O)CCS`
> 100 µM

Look up and report measured TGI for this entry: `Cc1cc(Cc2cc(C)c(NC(=O)C(=O)C3C(=O)NC(=S)NC3=O)c(C(C)C)c2)cc(C(C)C)c1NC(=O)C(=O)C1C(=O)NC(=S)NC1=O`
> 100 µM

Look up and report measured TGI for this entry: C/C=C(\C)C(=O)O[C@@H]1C(O)[C@H]2OC(COC(=O)CCC(=O)CCCCCC[C@H](CCCCC)O[C@@H]3OC(C)[C@H](OC(C)=O)C(O)[C@H]3O2)[C@H]1OC(=O)/C=C/c1ccccc1 (stereo partly drawn)
> 87.9 µM

Look up and report measured TGI for this entry: `C[C@@]12CC[C@H]3[C@@H]4CCC(=O)N[C@@]4(C)CC[C@@H]3[C@@]1(C)CC[C@H](OC(=O)Cc1ccc(N(CCCl)CCCl)cc1)C2`
31.3 µM

Look up and report measured TGI for this entry: `CCc1cccc(CC)c1NC(=S)NC(=O)c1ccc(Br)cc1`
> 100 µM

Look up and report measured TGI for this entry: `CC(C)(C)c1cc(-c2ccc(-c3cc(C(C)(C)C)c(O)c(C(C)(C)C)c3)cc2)cc(C(C)(C)C)c1O`
> 100 µM

Look up and report measured TGI for this entry: CC1CCCC(C(O)CC2CC(=O)N(c3ccccc3)C(=O)C2)C1=O (stereo not drawn)
> 100 µM

Look up and report measured TGI for this entry: `O=C1Oc2ccccc2C(=O)/C1=C/N1C(=O)/C(=C/c2ccc([N+](=O)[O-])cc2)SC1=S`
> 100 µM

Look up and report measured TGI for this entry: O=C1CC2CCCCC2=C1O (stereo not drawn)
> 100 µM

Look up and report measured TGI for this entry: O=[N+]([O-])c1ccc(NC2OCC(O)C(O)C2O)cc1 (stereo not drawn)
> 100 µM

Look up and report measured TGI for this entry: `CCCCn1c2c(c3ccccc3c1=O)C(=O)c1ccccc1-2`
> 100 µM

Look up and report measured TGI for this entry: `Cc1ccc(S(=O)(=O)CNC(=S)CCCC(=S)NCS(=O)(=O)c2ccc(C)cc2)cc1`
> 100 µM

Look up and report measured TGI for this entry: `O=c1c2cc(Br)ccc2oc2nc3n(c(=O)c12)CCCS3`
> 100 µM

Look up and report measured TGI for this entry: `CCCCCCCCOc1ccc(/C=N/Nc2cc(C)nc3ccc(Cl)cc23)cc1`
3.33 µM

Look up and report measured TGI for this entry: `C/C=C(/C)C(=O)O[C@@H]1c2c(C)coc2C[C@H]2CC[C@H](O)[C@H](C)[C@]21C`
> 100 µM

Look up and report measured TGI for this entry: C=CC1OC(CCCOC(=O)C(C)(C)C)O[C@@H]1CC (stereo partly drawn)
> 100 µM

Look up and report measured TGI for this entry: `COC(=O)[C@@H]1c2cc3c(c(O)c2[C@@H](OC)C[C@@]1(C)O)C(=O)c1c(O)cc2c(c1C3=O)OC1O[C@@]2(C)[C@H](O)[C@@H](N(C)C)[C@@H]1O`
1.33 µM

Look up and report measured TGI for this entry: `COc1ncc(-c2nc3c(n2C(C)C)[C@H](c2ccc(Cl)cc2)N(c2cc(Cl)cn(C)c2=O)C3=O)c(OC)n1`
> 100 µM

Look up and report measured TGI for this entry: `C=CCN1C(=O)/C(=C/c2ccc(C)cc2)N=C1SC/C=C/C`
> 100 µM

Look up and report measured TGI for this entry: Cn1c(C(C#N)c2cc(Cl)ncn2)nc2ccccc21 (stereo not drawn)
> 100 µM

====

Field: TGI. Provide a value for each of the compounds that follow.
- System: UACC-257 melanoma
- Run Description: NCI tumour cell line growth inhibition, 48 h

Look up and report measured TGI for this entry: `Cc1ccc(NC(=O)CC(=O)n2nc(-c3ccccc3)c(N=Nc3ccc(Cl)cc3)c2-c2ccccc2)cc1`
> 100 µM

Look up and report measured TGI for this entry: `CN(C)CCNCc1c2ccccc2c(CNCCN(C)C)c2ccccc12`
32.5 µM

Look up and report measured TGI for this entry: `CC(C)(C)OC(=O)NCCCCCCCCn1c2c(c3ccccc3c1=O)C(=O)c1ccccc1-2`
> 50 µM

Look up and report measured TGI for this entry: `COc1ncc(-c2nc3c(n2C(C)C)[C@H](c2ccc(Cl)cc2)N(c2cc(Cl)cn(C)c2=O)C3=O)c(OC)n1`
94.4 µM

Look up and report measured TGI for this entry: `Oc1[nH]c2ccccc2c1N=NC1=NCCCCN1`
> 100 µM

Look up and report measured TGI for this entry: O=[N+]([O-])c1ccc(NC2OCC(O)C(O)C2O)cc1 (stereo not drawn)
> 100 µM

Look up and report measured TGI for this entry: `COC(=O)c1ccccc1NC(=O)C(=O)CC(=O)c1ccccc1NC1=CC(=O)C(=O)c2ccccc21`
14.8 µM

Look up and report measured TGI for this entry: `O=C(Oc1ccc([N+](=O)[O-])cc1)N1CCN(Cc2cccc(Oc3ccccc3)c2)CC1`
> 100 µM

Look up and report measured TGI for this entry: `Cc1cc(C)c2c(n1)S(=O)(=O)N(CCCN1CCN(c3cccc(C(F)(F)F)c3)CC1)/C(=C(\O)c1ccccc1)C2=O`
32.4 µM

Look up and report measured TGI for this entry: `NC(=O)N/N=C(\Cc1nc2ccc(C(=O)c3ccccc3)cc2[nH]c1=O)C(=O)Nc1ccc(Br)cc1`
> 100 µM

Look up and report measured TGI for this entry: `CC[C@@]1(O)C(=O)OCc2c1cc1n(c2=O)Cc2cc3cc(OC)ccc3nc2-1`
1.54 µM

Look up and report measured TGI for this entry: C=C(C)C1Cc2c(cc(O)c3c(=O)c4ccccc4n(C)c23)O1 (stereo not drawn)
> 100 µM

Look up and report measured TGI for this entry: `C/C(=N\NC(=O)CC(=O)Nc1ccc(Cl)cc1)c1cc2ccccc2oc1=O`
> 100 µM

====

Field: TGI. Provide a value for each of the compounds that follow.
- Test system: IGROV1 ovarian
- Run Description: NCI tumour cell line growth inhibition, 48 h

Look up and report measured TGI for this entry: `Cn1ccc(=Nc2ccc(NC(=O)c3ccc(N=c4ccn(C)c5ccc([N+](=O)[O-])cc45)cc3)cc2)cc1`
> 100 µM

Look up and report measured TGI for this entry: `CCSc1nc2sc(C)c(C)c2c(=O)n1-c1ccc(C(=O)O)cc1`
> 100 µM

Look up and report measured TGI for this entry: `Cc1cc(S(=O)(=O)Nc2nc3ccsc3c(=O)n2Cc2ccco2)c(S)cc1Cl`
> 100 µM

Look up and report measured TGI for this entry: O=C(O)c1c(CC(Cc2ccc3c(c2)CCCC3)C(=O)O)ccc2c1CCCC2 (centres undefined)
> 100 µM

Look up and report measured TGI for this entry: `COC(=O)[C@]12CC[C@@H](C)[C@H](C)[C@@H]1C1=CC[C@@H]3[C@@]4(C)C(C=O)=C[C@@](C)(COC(C)=O)[C@@H]4[C@H](O)C[C@@]3(C)[C@]1(C)CC2`
9.7 µM

Look up and report measured TGI for this entry: `CCCCCCOc1ccc(NC2=C(Cl)C(=O)c3cccnc3C2=O)cc1`
3.62 µM

Look up and report measured TGI for this entry: OC(c1cccs1)c1cc2ccccc2s1 (centres undefined)
> 10 µM

Look up and report measured TGI for this entry: CCc1cccc(C(C)C)c1NC(=O)C(=O)C(C(=O)C(=O)OC)c1nc2ccccc2[nH]c1=O (centres undefined)
> 100 µM

Look up and report measured TGI for this entry: NC1=NC(c2ccccc2)N=C(Nc2ccccc2)N1 (centres undefined)
> 100 µM

Look up and report measured TGI for this entry: `CCc1cccc(CC)c1NC(=S)NC(=O)c1ccc(Br)cc1`
> 100 µM

Look up and report measured TGI for this entry: `C[C@@]12CC[C@H]3[C@@H]4CCC(=O)N[C@@]4(C)CC[C@@H]3[C@@]1(C)CC[C@H](OC(=O)Cc1ccc(N(CCCl)CCCl)cc1)C2`
31.3 µM

Look up and report measured TGI for this entry: NC1CC2C3CCC2C1C3=O (centres undefined)
> 100 µM

Look up and report measured TGI for this entry: `CC(=O)O[C@H]1[C@@H]2[C@@H]3[C@@H](C[C@H]1C)[C@@H](C)CO[C@@]1(C)CC/C=C(/C)C[C@@H]2O[C@@H]31`
> 100 µM

Look up and report measured TGI for this entry: COC(=O)C(NC(=O)CNC(=O)CSc1nnc(COc2ccc(Cl)cc2)n1-c1ccccc1)C(C)C (centres undefined)
50.1 µM
